Target Under Test: T1, human FOLR1 protein, His Tag (ACRO FO1-H52H1) (human, UniProt P15328 25-233)
T1 construct: Bought protein coated on ELISA plates; not shown: His tag
T1 sequence (P15328 25-233 limits assumed): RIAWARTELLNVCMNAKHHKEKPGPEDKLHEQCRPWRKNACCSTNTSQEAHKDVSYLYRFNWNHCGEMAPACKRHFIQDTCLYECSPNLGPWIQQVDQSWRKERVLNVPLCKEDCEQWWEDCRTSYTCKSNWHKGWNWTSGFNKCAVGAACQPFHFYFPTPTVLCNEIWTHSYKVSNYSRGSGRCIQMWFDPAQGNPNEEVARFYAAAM
Assay: ELISA, coated hFOLR1-His, HEK293 supernatant
Entries and their OD450 values follow.
Supply the numeric figure in OD450, leaving out any unit text.

Some solved entries appear below for comparison.
{"Binder": "F100 (antibody, V domains shown, Tested as full-length IgG with an IgG1 Fc from HEK293, as supernatant or purified; also called clone F100; anti-FOLR1 antibody F100) VH: EVQLLESGGGVVQPGRSLRLSCAASGFTFSSYGMHWVRQAPGKGLEWVAVISYDGSNKYYADSVKGRFTISRPNSKNTLYLQMNSLRAEDTAVYYCARPRAYYGAYGSSFDYWGQGTQVTVSS VL: EIVMTQSPSSVSASVGDRVAITCRASQGISSWLAWYQQKPGKAPKLLIYAASSLQSGVPSRFSGSGSGTDFTLTISSLQPEDFATYYCQQSYSTPLTFGGGTKVDIK", "OD450 / OD450": 2.3}
{"Binder": "F40 (antibody, V domains shown, Tested as full-length IgG with an IgG1 Fc from HEK293, as supernatant or purified; also called clone F40; anti-FOLR1 antibody F40) VH: EVQLLESGGGVVQPGRSLRLSCAASGFTFSSYAMHWVRQAPGKGLEWVAVISYDGSNKYYADSVKGRFIISRDNSKNTVYLQMNSLRAEDTAVYYCARPTYVFTYTGSSFDYWGQGTQVTVSS VL: DIQVTQSPSSLSASLGDTVSITCRASRGLTDSVAWYQQKPGQAPKLLIYAASTLQSGVPSRFGGSGSGSYFTLTITSLQPEDVATYYCQNYKSAPWTFGQGTKVEIK", "OD450 / OD450": 2.39}
{"Binder": "F112 (antibody, V domains shown, Tested as full-length IgG with an IgG1 Fc from HEK293, as supernatant or purified; also called clone F112; anti-FOLR1 antibody F112) VH: EVQLLESGGGVVQPGRSLRLSCAASGFTFSSYGMHWVRQAPGKGLEWVAVISYDGSNKYYADSVKGRFTISRHNSKNTLYLQMNSLRAEDTAVYYCARPRAYYGAYGSSFDYWGQGTQVTVSS VL: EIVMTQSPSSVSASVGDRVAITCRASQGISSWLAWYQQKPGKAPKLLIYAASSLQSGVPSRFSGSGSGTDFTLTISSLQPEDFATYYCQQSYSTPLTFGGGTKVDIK", "OD450 / OD450": 2.35}
{"Binder": "F1 (antibody, V domains shown, also called clone F1; anti-FOLR1 antibody F1) VH: EVQLLESGGGVVQPGRSLRLSCAASGFTFSSYGMHWVRQAPGKGLEWVAVISYDGSNKYYADSVKGRFTISRDNSKNTLYLQMNSLRAEDTAVYYCARPRAYYGAYGSSFDYWGQGTQVTVSS VL: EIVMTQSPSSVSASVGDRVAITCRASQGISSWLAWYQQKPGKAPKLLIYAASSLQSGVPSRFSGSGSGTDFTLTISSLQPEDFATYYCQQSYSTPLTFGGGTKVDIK", "OD450 / OD450": 2.43}

Lab note: next binder to report on.
query: Endpoint output: OD450 of F138 (antibody, V domains shown, Tested as full-length IgG with an IgG1 Fc, HEK293 supernatant; also called clone F138; anti-FOLR1 antibody F138) VH: EVQLLESGGGVVQPGRSLRLSCAASGFTFSSYGMHWVRQAPGKGLEWVAVISYDGSNKYYADSVKGRFTISTHNSKNTLYLQMNSLRAEDTAVYYCARPRAYYGAYGSSFDYWGQGTQVTVSS VL: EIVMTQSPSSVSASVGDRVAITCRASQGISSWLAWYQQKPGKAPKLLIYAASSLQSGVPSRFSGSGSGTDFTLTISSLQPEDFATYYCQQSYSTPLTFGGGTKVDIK . Value?
result: 2.41
